Assignment: determine reported IC50 for the given compounds.
Tested on: human colon cancer cells (HCT-116)
ASSAY_SUMMARY: CCK-8 cell proliferation assay, HCT-116
Format: cell-based
PROTOCOL_CONDITIONS: HCT-116, CCK-8, 48 h, read-out: IC50 ± SD HCT116
Give bare numbers, in µM.

compound="COC1C2CC3C(C)(C)OC(CC=C(C)C(=O)N4CCS(=O)(=O)CC4)(C2=O)C32Oc3c(CC=C(C)C)c4c(c(O)c3C(=O)C12)C=CC(C)(C)O4 (centres unmarked)" result_type=IC50 unit_abbreviation=µM result_value=0.83
compound="COC1C2CC3C(C)(C)OC(CC=C(C)C(=O)N4CCC(c5ccccc5)CC4)(C2=O)C32Oc3c(CC=C(C)C)c4c(c(O)c3C(=O)C12)C=CC(C)(C)O4 (centres unmarked)" result_type=IC50 unit_abbreviation=µM result_value=1.52
compound="COC1C2CC3C(C)(C)OC(CC=C(C)C(=O)N4CCC(N5CCCC5)CC4)(C2=O)C32Oc3c(CC=C(C)C)c4c(c(O)c3C(=O)C12)C=CC(C)(C)O4 (centres unmarked)" result_type=IC50 unit_abbreviation=µM result_value=1

Report IC50 for every entry below.
1. CONC(=O)C(C)=CCC12OC(C)(C)C3CC(C1=O)C(OC)C1C(=O)c4c(O)c5c(c(CC=C(C)C)c4OC132)OC(C)(C)C=C5 (centres unmarked)
2. COC1C2CC3C(C)(C)OC(CC=C(C)C(=O)N4CCSCC4)(C2=O)C32Oc3c(CC=C(C)C)c4c(c(O)c3C(=O)C12)C=CC(C)(C)O4 (centres unmarked)
3. COC1C2CC3C(C)(C)OC(CC=C(C)C(=O)N4CCOCC4)(C2=O)C32Oc3c(CC=C(C)C)c4c(c(O)c3C(=O)C12)C=CC(C)(C)O4 (centres unmarked)
4. O=c1[nH]cc(F)c(=O)[nH]1 [5-Fu, 5-fluorouracil, reference compound]
5. COC1C2CC3C(C)(C)OC(CC=C(C)C(=O)N4CCCCC4)(C2=O)C32Oc3c(CC=C(C)C)c4c(c(O)c3C(=O)C12)C=CC(C)(C)O4 (centres unmarked)

1.68
7.62
1.96
0.62
1.19

###

Tested on: human breast cancer cells (MDA-MB-231)
ASSAY_SUMMARY: CCK-8 cell proliferation assay, MDA-MB-231
Assay type: cell-based
PROTOCOL_CONDITIONS: 48 h, read-out: Inhibition rates (%) MDA-MB-231
Assignment: determine reported inhibition at 5 µM for the given compounds.
Give bare numbers, in %.

Report inhibition at 5 µM for every entry below.
1. COC1C2CC3C(C)(C)OC(CC=C(C)C(=O)N4CCC(N5CCCC5)CC4)(C2=O)C32Oc3c(CC=C(C)C)c4c(c(O)c3C(=O)C12)C=CC(C)(C)O4 (stereo not drawn) [TH12-8]
2. COC1C2CC3C(C)(C)OC(CC=C(C)C(=O)N4CCSCC4)(C2=O)C32Oc3c(CC=C(C)C)c4c(c(O)c3C(=O)C12)C=CC(C)(C)O4 (stereo not drawn) [TH12-4]

1: 4.32; 2: 3.13

###

Tested on: human breast cancer cells (MDA-MB-231)
ASSAY_SUMMARY: CCK-8 cell proliferation assay, MDA-MB-231
Format: cell-based
PROTOCOL_CONDITIONS: 48 h, read-out: Inhibition rates (%) MDA-MB-231
Description: Initially, the target compounds were evaluated for antiproliferative activities against human non-small-cell lung cancer cells (A549), human breast cancer cells (MDA-MB-231), human esophageal cancer cells (KYSE30), and human colon cancer cells (HCT-116) at 5 μM. All of them were tested by the CCK-8 assay using 5-Fu as the positive control. […]
Assignment: determine reported inhibition at 5 µM for the given molecules.
Give bare numbers, in %.

Use these answered entries as a reference point.
molecule="CONC(=O)C(C)=CCC12OC(C)(C)C3CC(C1=O)C(OC)C1C(=O)c4c(O)c5c(c(CC=C(C)C)c4OC132)OC(C)(C)C=C5 (stereo not shown)" assay_system="human breast cancer cells (MDA-MB-231)" result_value=-1.76
molecule="COC1C2CC3C(C)(C)OC(CC=C(C)C(=O)N4CCC(C)CC4)(C2=O)C32Oc3c(CC=C(C)C)c4c(c(O)c3C(=O)C12)C=CC(C)(C)O4 (stereo not shown)" assay_system="human breast cancer cells (MDA-MB-231)" result_value=0.69
molecule="COC1C2CC3C(C)(C)OC(CC=C(C)C(=O)N4CCC(c5ccccc5)CC4)(C2=O)C32Oc3c(CC=C(C)C)c4c(c(O)c3C(=O)C12)C=CC(C)(C)O4 (stereo not shown)" assay_system="human breast cancer cells (MDA-MB-231)" result_value=2.99

Would you kindly look at the next entry?
For the molecule O=c1[nH]cc(F)c(=O)[nH]1 [5-Fu, 5-fluorouracil, reference compound] , report inhibition at 5 µM.
26.6

Reference source for all entries: paper PMC8846360
